- Assay Method Text: Viscosity of peptide solutions, Brookfield viscometer
- Assay type: physicochemical
- Condition Summary: pH 12; peptide 4%, 20 rpm, RT
Where no end group is shown, it is not given here.
Recorded Viscosity values for a group of substances are listed next.
Hi! Could you send only the number? It should be in mPa · s, unit omitted.

Solved cases below.
KKK-FLIVIGSII-EEE (KKKFLIVIGSIIEEE) [Peptide K3h9E3] = 20
EEE-FLIVIGSII-KKK (EEEFLIVIGSIIKKK) [Peptide E3h9K3] = 20
EEEFLIVIGSIIEEE-OH [Peptide E3h9E3, EEE-FLIVIGSII-EEE] = 20

Q: Entry under review: KKK-FLIVIGSII-KKK (KKKFLIVIGSIIKKK) [Peptide K3h9K3] . Reported Viscosity?
Ans: 290
